This section presents compounds with their documented log10(IC50) values.
target: Pancreatic lipase (PL) (Sus scrofa); construct: purchased Sigma Aldrich type II, Lot.SLBN9099V; assay: Inhibition of PL-mediated 4-MUO hydrolysis; type: biochemical; conditions: 4-MUO substrate, mean ± SD (n = 3)
Values reflect log10 of reported IC50 (µM).

CC(C)=CCC=C(C)C1CCC2(C)C1C(O)CC1C3(C)CCC(O)C(C)(C)C3C(OC3OC(CO)C(O)C(O)C3OC3OC(C)C(O)C(O)C3O)CC12C (stereo not drawn) [Compound 19] :: 1.87

Note: attention shifts to another entry.
Please give measured log10(IC50) of the following entry: CC1(C)[C@@H](O)CC[C@]2(C)[C@H]3C(=O)C=C4[C@@H]5C[C@@](C)(C(=O)O)CC[C@]5(C)CC[C@@]4(C)[C@]3(C)CC[C@@H]12 [Compound 9, glycyrrhetic acid]
1.45

====

target: hCES1A (Homo sapiens); construct: tissue Bioreclamation IVT lot No. X008067; host or cells: pooled human liver microsomes from 50 donors; test: Inhibition of hCES1A-mediated NLMe hydrolysis in human liver microsomes; assay type: biochemical; conditions: NLMe substrate, HLM, mean ± SD (n = 3); read-out: IC50 (µM) hCES1A
Sequence (P23141 18-567): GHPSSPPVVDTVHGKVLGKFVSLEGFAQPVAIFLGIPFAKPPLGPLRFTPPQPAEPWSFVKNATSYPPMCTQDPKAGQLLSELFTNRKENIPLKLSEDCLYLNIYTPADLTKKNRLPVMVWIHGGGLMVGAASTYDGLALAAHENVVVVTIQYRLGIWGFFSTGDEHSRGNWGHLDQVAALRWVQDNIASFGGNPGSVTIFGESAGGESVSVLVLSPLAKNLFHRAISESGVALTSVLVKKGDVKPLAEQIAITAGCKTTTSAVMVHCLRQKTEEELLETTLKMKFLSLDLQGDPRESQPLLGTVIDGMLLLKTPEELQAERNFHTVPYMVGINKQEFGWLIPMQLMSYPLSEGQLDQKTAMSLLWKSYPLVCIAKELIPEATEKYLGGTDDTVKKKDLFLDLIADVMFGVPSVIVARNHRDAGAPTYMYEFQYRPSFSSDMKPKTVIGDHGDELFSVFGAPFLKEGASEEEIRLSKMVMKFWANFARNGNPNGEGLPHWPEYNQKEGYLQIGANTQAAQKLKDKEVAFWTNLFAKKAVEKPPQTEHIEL
This section presents molecules with their documented IC50 values.

CC1(C)CCC2(C(=O)O)CCC3(C)C(=CCC4C5(C)CCC(=O)C(C)(C)C5CCC43C)C2C1 (centres unmarked) [Compound 30] :: 0.047 µM
CC(=O)OC1CCC2(C)C(CCC3(C)C2CC=C2C4C(C)C(C)CCC4(C(=O)O)CCC23C)C1(C)C (centres unmarked) [Compound 41] :: 0.014 µM
C[C@H]1[C@H](C)CC[C@]2(C(=O)O)CC[C@]3(C)C(=CC[C@@H]4[C@@]5(C)CC[C@H](O)C(C)(C)[C@@H]5CC[C@]43C)[C@H]12 [Compound 5, ursolic acid] :: 0.04 µM
CC1CCC2(C(=O)O)CCC3(C)C(=CCC4C5(C)C=C(O)C(=O)C(C)(C)C5CCC43C)C2C1C (centres unmarked) [Compound 43] :: 0.032 µM

Please give measured IC50 of the following entry: C[C@H]1[C@H](C)CC[C@]2(C)CC[C@]3(C)C(=CC[C@@H]4[C@@]5(C)CC[C@@H](O)[C@](C)(C(=O)O)[C@@H]5CC[C@]43C)[C@H]12 [Compound 8, β-Boswellic acid]
> 100 µM

====

biological target: Pancreatic lipase (PL) (Sus scrofa, UniProt P00591); construct: purchased Sigma Aldrich type II, Lot.SLBN9099V; assay: Inhibition of PL-mediated 4-MUO hydrolysis; assay type: biochemical; details: 4-MUO substrate, mean ± SD (n = 3)
Sequence (P00591 whole entry): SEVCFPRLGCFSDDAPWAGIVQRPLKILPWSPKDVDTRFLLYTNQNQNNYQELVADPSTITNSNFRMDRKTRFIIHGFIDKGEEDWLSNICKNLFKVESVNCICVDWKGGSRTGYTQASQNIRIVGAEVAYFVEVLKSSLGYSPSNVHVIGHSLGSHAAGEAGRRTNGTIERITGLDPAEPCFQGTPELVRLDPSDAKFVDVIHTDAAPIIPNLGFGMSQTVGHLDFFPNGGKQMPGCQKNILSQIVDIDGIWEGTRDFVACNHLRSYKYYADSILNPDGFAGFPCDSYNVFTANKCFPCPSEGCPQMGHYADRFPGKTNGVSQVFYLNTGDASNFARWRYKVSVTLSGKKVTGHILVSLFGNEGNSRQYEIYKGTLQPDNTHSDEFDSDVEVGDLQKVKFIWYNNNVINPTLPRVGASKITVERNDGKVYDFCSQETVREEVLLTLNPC
QUANTITY_KIND: IC50 (µM)
Please give a number only; it is taken to be in µM.

Examples from the recorded data:
C=C(C)[C@@H]1CC[C@]2(CO)CC[C@]3(C)[C@H](CC[C@@H]4[C@@]5(C)CC[C@H](O)C(C)(C)[C@@H]5CC[C@]43C)[C@@H]12 :: 7.47
CC1=C(O)C(=O)C=C2C1=CC=C1[C@@]2(C)CC[C@@]2(C)[C@@H]3C[C@](C)(C(=O)O)CC[C@]3(C)CC[C@]12C :: 4.69
CC1(C)CCC2(C(=O)O)CCC3(C)C(=CCC4C5(C)CCC(OC(=O)CCC(=O)O)C(C)(C)C5CCC43C)C2C1 (stereo not shown) :: 36.4

Please give measured IC50 of the following entry: CC1CCC2(C(=O)O)CCC3(C)C(=CCC4C5(C)CCC(OC(=O)CCC(=O)O)C(C)(C)C5CCC43C)C2C1C (stereo not shown)
20.9
